Assay: Phase 1 trial: plasma pharmacokinetics
Type: in vivo
Settings: human, oral, 200 mg, Cycle 1 Day 1, 200 mg BID (n = 9), read-out: Cmax mean
test_readout: Cmax
Reply with a number, then the unit it belongs to.

Prompt: Any idea what its Cmax is? The compound is COc1ccc(CN2C3CC2CN(c2ccc(-c4cc(N5CC(C)(O)C5)cn5ncc(C#N)c45)cn2)C3)cn1
Response: 3180 ng/mL

---

Assay: Phase 1 trial: plasma pharmacokinetics
Assay type: in vivo
Settings: human, 120 mg, Cycle 1 Day 1, 120 mg BID (n = 3), read-out: MRTINF_obs mean
Source text: Serial plasma samples were also collected in each patient after the first dose and during multiple-dose administration on Cycle 1 Day 28.
test_readout: MRT inf (h)
Supply the numeric figure in h, leaving out any unit text.

Prompt: Any idea what its MRT inf is? The compound is COc1ccc(CN2C3CC2CN(c2ccc(-c4cc(N5CC(C)(O)C5)cn5ncc(C#N)c45)cn2)C3)cn1 [SY-5007]
Response: 11.6
